The measured values listed here are drawn from ChEMBL document CHEMBL5329202.

Hi there, I'd appreciate the recorded IC50 at 72 h for every entry that follows.
Test: Cytotoxicity against human HMEC-1 cells assessed as cell growth inhibition measured after 72 hrs by MTT assay
Type: toxicity, cell-based
Answers are plain numbers, in µM.

Before answering, review these 2 worked examples.
>  <molecule>
CC12C(=O)C(C)(C(c3ccccc3)=C1c1ccccc1)C1C(=O)N(CCCCN3CCN(c4ccccn4)CC3)C(=O)C12 (stereo not drawn)

>  <experimental value>
36.6

$$$$
>  <molecule>
COc1cccc2c1C(=O)c1c(O)c3c(c(O)c1C2=O)C[C@@](O)(C(=O)CO)C[C@@H]3O[C@H]1C[C@H](N)[C@H](O)[C@H](C)O1

>  <experimental value>
0.5

$$$$

Then there is this molecule:
Enquiry: Using the record for CC12C(=O)C(C)(C(c3ccccc3)=C1c1ccccc1)C1C(=O)N(CCCCN3CCN(c4ccccc4Cl)CC3)C(=O)C12 (stereo not drawn) , report its IC50 at 72 h.
Return: 20.6

---

System: A549
Assay: Cytotoxicity against human A549 cells assessed as cell growth inhibition measured after 72 hrs by MTT assay
Format: functional, cell-based
Conditions: A549, 72 h
// classify: if (IC50 < 20 µM) true (1) else false (0)

Consider the following illustrative entries.
>  <molecule>
CC12C(=O)C(C)(C(c3ccccc3)=C1c1ccccc1)C1C(=O)N(CCCCN3CCN(c4ncccn4)CC3)C(=O)C12 (configuration not stated)

>  <experimental system>
A549

>  <group>
true (1)

$$$$
>  <molecule>
COc1cccc2c1C(=O)c1c(O)c3c(c(O)c1C2=O)C[C@@](O)(C(=O)CO)C[C@@H]3O[C@H]1C[C@H](N)[C@H](O)[C@H](C)O1

>  <experimental system>
A549

>  <group>
true (1)

$$$$
>  <molecule>
CC12C(=O)C(C)(C(c3ccccc3)=C1c1ccccc1)C1C(=O)N(CCCCN3CCN(c4cccc(Cl)c4)CC3)C(=O)C12 (configuration not stated)

>  <experimental system>
A549

>  <group>
false (0)

$$$$
>  <molecule>
CC12C(=O)C(C)(C(c3ccccc3)=C1c1ccccc1)C1C(=O)N(CCCCN3CCN(c4ccccc4F)CC3)C(=O)C12 (configuration not stated)

>  <experimental system>
A549

>  <group>
false (0)

$$$$
>  <molecule>
CC12C(=O)C(C)(C(c3ccccc3)=C1c1ccccc1)C1C(=O)N(CCCCN3CCN(c4ccccn4)CC3)C(=O)C12 (configuration not stated)

>  <experimental system>
A549

>  <group>
true (1)

$$$$
>  <molecule>
CC12C(=O)C(C)(C(c3ccccc3)=C1c1ccccc1)C1C(=O)N(CCCCN3CCN(c4ccccc4Cl)CC3)C(=O)C12 (configuration not stated)

>  <experimental system>
A549

>  <group>
false (0)

$$$$

Switching to the query record.
Enquiry: # check: IC50 < 20 µM for COc1ccccc1N1CCN(CCCCN2C(=O)C3C(C2=O)C2(C)C(=O)C3(C)C(c3ccccc3)=C2c2ccccc2)CC1 (configuration not stated)
Return: true (1)

---

Hi there, I'd appreciate the recorded pIC50 for every entry that follows.
Test system: MDA-MB-231
Test: Cytotoxicity against human MDA-MB-231 cells assessed as cell growth inhibition measured after 72 hrs by MTT assay
Type: functional, cell-based
Conditions: MDA-MB-231, 72 h
Give bare numbers, as −log10 of the molar value.

>  <compound>
CC12C(=O)C(C)(C(c3ccccc3)=C1c1ccccc1)C1C(=O)N(CCCCN3CCN(c4ccccc4F)CC3)C(=O)C12 (configuration not stated)

>  <experimental value>
4.25

$$$$
>  <compound>
CC12C(=O)C(C)(C(c3ccccc3)=C1c1ccccc1)C1C(=O)N(CCCCN3CCN(c4ncccn4)CC3)C(=O)C12 (configuration not stated)

>  <experimental value>
4.73

$$$$
>  <compound>
CC12C(=O)C(C)(C(c3ccccc3)=C1c1ccccc1)C1C(=O)N(CCCCN3CCN(c4cccc(Cl)c4)CC3)C(=O)C12 (configuration not stated)

>  <experimental value>
4.39

$$$$
>  <compound>
CC12C(=O)C(C)(C(c3ccccc3)=C1c1ccccc1)C1C(=O)N(CCCCN3CCN(c4ccccn4)CC3)C(=O)C12 (configuration not stated)

>  <experimental value>
4.82

$$$$
>  <compound>
COc1ccccc1N1CCN(CCCCN2C(=O)C3C(C2=O)C2(C)C(=O)C3(C)C(c3ccccc3)=C2c2ccccc2)CC1 (configuration not stated)

>  <experimental value>
4.53

$$$$
>  <compound>
COc1cccc2c1C(=O)c1c(O)c3c(c(O)c1C2=O)C[C@@](O)(C(=O)CO)C[C@@H]3O[C@H]1C[C@H](N)[C@H](O)[C@H](C)O1 [DOXORUBICIN]

>  <experimental value>
6.92

$$$$

Then there is this compound:
Enquiry: Using the record for CC12C(=O)C(C)(C(c3ccccc3)=C1c1ccccc1)C1C(=O)N(CCCCN3CCN(c4ccccc4Cl)CC3)C(=O)C12 (configuration not stated) , report its pIC50.
Return: 4.61

---

Molecular target: UniProt P31390
Sequence (P31390 whole entry): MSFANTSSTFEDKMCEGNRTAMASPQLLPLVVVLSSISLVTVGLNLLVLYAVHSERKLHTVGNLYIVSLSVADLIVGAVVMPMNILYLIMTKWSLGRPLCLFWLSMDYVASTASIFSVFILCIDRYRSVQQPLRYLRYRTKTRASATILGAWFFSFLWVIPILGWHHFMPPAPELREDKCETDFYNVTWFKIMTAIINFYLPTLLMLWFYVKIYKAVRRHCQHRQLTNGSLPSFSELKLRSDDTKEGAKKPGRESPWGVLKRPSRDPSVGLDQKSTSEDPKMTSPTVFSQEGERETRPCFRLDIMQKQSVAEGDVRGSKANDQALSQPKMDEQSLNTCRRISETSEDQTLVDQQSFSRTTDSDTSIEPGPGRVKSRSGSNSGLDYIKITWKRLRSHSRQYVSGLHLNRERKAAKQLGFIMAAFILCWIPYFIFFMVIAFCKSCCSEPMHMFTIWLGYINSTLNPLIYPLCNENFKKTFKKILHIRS
Hi there, I'd appreciate the recorded pKi for every entry that follows.
Numbers only, as −log10 of the molar value.

>  <molecule>
COc1ccccc1N1CCN(CCCCN2C(=O)C3C(C2=O)C2(C)C(=O)C3(C)C(c3ccccc3)=C2c2ccccc2)CC1 (stereo not drawn)

>  <pKi>
6.52

$$$$
>  <molecule>
CC12C(=O)C(C)(C(c3ccccc3)=C1c1ccccc1)C1C(=O)N(CCCCN3CCN(c4ccccn4)CC3)C(=O)C12 (stereo not drawn)

>  <pKi>
6.22

$$$$

Then there is this molecule:
Enquiry: # get_value(readout= pKi, system= UniProt P31390) for CC12C(=O)C(C)(C(c3ccccc3)=C1c1ccccc1)C1C(=O)N(CCCCN3CCN(c4cccc(Cl)c4)CC3)C(=O)C12 (stereo not drawn)
Return: 7.10

---

Test system: SW480
Assay: Induction of apoptosis in human SW480 cells assessed as viable cells at IC50 incubated for 72 hrs by Annexin V-FITC/PI staining based flow cytometric analysis (reference value: 97.7 %)
Type: functional
experimental endpoint: Activity (%)
Numbers only, in %.

Before answering, review these 3 worked examples.
>  <molecule>
COc1ccccc1N1CCN(CCCCN2C(=O)C3C(C2=O)C2(C)C(=O)C3(C)C(c3ccccc3)=C2c2ccccc2)CC1 (centres undefined)

>  <Activity / %>
87.1

$$$$
>  <molecule>
CC12C(=O)C(C)(C(c3ccccc3)=C1c1ccccc1)C1C(=O)N(CCCCN3CCN(c4cccc(Cl)c4)CC3)C(=O)C12 (centres undefined)

>  <Activity / %>
81.9

$$$$
>  <molecule>
CC12C(=O)C(C)(C(c3ccccc3)=C1c1ccccc1)C1C(=O)N(CCCCN3CCN(c4ccccc4Cl)CC3)C(=O)C12 (centres undefined)

>  <Activity / %>
89

$$$$

Enquiry: Using the record for CC12C(=O)C(C)(C(c3ccccc3)=C1c1ccccc1)C1C(=O)N(CCCCN3CCN(c4ccccc4F)CC3)C(=O)C12 (centres undefined) , report its Activity.
Return: 87.8

---

Tested on: K562
Assay: Induction of apoptosis in human K562 cells assessed as increase in caspase-3/7 activity at IC50 incubated for 24 hrs by Glo assay relative to control
Type: functional
experimental endpoint: Activity (%)
One number for each entry, in %.

Before answering, review these 4 worked examples.
>  <compound>
CC12C(=O)C(C)(C(c3ccccc3)=C1c1ccccc1)C1C(=O)N(CCCCN3CCN(c4ccccn4)CC3)C(=O)C12 (stereo unspecified)

>  <Activity, %>
74

$$$$
>  <compound>
CC12C(=O)C(C)(C(c3ccccc3)=C1c1ccccc1)C1C(=O)N(CCCCN3CCN(c4ccccc4Cl)CC3)C(=O)C12 (stereo unspecified)

>  <Activity, %>
22

$$$$
>  <compound>
CC12C(=O)C(C)(C(c3ccccc3)=C1c1ccccc1)C1C(=O)N(CCCCN3CCN(c4cccc(Cl)c4)CC3)C(=O)C12 (stereo unspecified)

>  <Activity, %>
74

$$$$
>  <compound>
CC12C(=O)C(C)(C(c3ccccc3)=C1c1ccccc1)C1C(=O)N(CCCCN3CCN(c4ncccn4)CC3)C(=O)C12 (stereo unspecified)

>  <Activity, %>
22

$$$$

Kindly give each listed record's Activity.
1. CC12C(=O)C(C)(C(c3ccccc3)=C1c1ccccc1)C1C(=O)N(CCCCN3CCN(c4ccccc4F)CC3)C(=O)C12 (stereo unspecified)
2. COc1ccccc1N1CCN(CCCCN2C(=O)C3C(C2=O)C2(C)C(=O)C3(C)C(c3ccccc3)=C2c2ccccc2)CC1 (stereo unspecified)

Return:
1: 74; 2: 22

---

System: HCT-116
Experiment: Cytotoxicity against human HCT-116 cells assessed as cell growth inhibition measured after 72 hrs by MTT assay
Format: functional, cell-based
Conditions: HCT-116, 72 h
Hi there, I'd appreciate the recorded IC50 for every entry that follows.
Answer as a quantity: numeral, then unit.

Before answering, review these 3 worked examples.
>  <compound>
CC12C(=O)C(C)(C(c3ccccc3)=C1c1ccccc1)C1C(=O)N(CCCCN3CCN(c4ccccn4)CC3)C(=O)C12 (configuration not stated)

>  <experimental value>
8.38 µM

$$$$
>  <compound>
CC12C(=O)C(C)(C(c3ccccc3)=C1c1ccccc1)C1C(=O)N(CCCCN3CCN(c4ncccn4)CC3)C(=O)C12 (configuration not stated)

>  <experimental value>
4.63 µM

$$$$
>  <compound>
CC12C(=O)C(C)(C(c3ccccc3)=C1c1ccccc1)C1C(=O)N(CCCCN3CCN(c4ccccc4Cl)CC3)C(=O)C12 (configuration not stated)

>  <experimental value>
3.58 µM

$$$$

Kindly give each listed record's IC50.
1. COc1ccccc1N1CCN(CCCCN2C(=O)C3C(C2=O)C2(C)C(=O)C3(C)C(c3ccccc3)=C2c2ccccc2)CC1 (configuration not stated)
2. CC12C(=O)C(C)(C(c3ccccc3)=C1c1ccccc1)C1C(=O)N(CCCCN3CCN(c4ccccc4F)CC3)C(=O)C12 (configuration not stated)

Return:
8.89 µM
4.48 µM

Kindly give each listed record's IC50.
1. CC12C(=O)C(C)(C(c3ccccc3)=C1c1ccccc1)C1C(=O)N(CCCCN3CCN(c4cccc(Cl)c4)CC3)C(=O)C12 (configuration not stated)
2. COc1cccc2c1C(=O)c1c(O)c3c(c(O)c1C2=O)C[C@@](O)(C(=O)CO)C[C@@H]3O[C@H]1C[C@H](N)[C@H](O)[C@H](C)O1

Return:
["6.19 µM", "0.96 µM"]
